System: HCT116 cells treated with a GSK3β inhibitor
run-description: cells
Assay type: cell-based
study-conditions: Homo sapiens, HCT-116; HCT116 pretreated with GSK3b inhibitor; read-out: GSK3b inh pretreated_Viability ATP HCT116
This listing pairs molecules with measured pIC50.
Formally, pIC50 is defined as -log10 of the concentration c, with c in mol/L.

Query block: Returns the measured pIC50 for the input molecule. Input: CCCCc1ccc2[nH]c(NC(=O)OC)nc2c1
Result block: 6.98

Query block: // repeat for CCCCC(CC)CNC(=N)NC(=N)NCCCCCCNC(=N)NC(=N)NCC(CC)CCCC (stereo not drawn) and report
Result block: 6.40

Query block: // same read-out, input: CCC(C)(C)C(=O)O[C@H]1C[C@@H](C)C=C2C=C[C@H](C)[C@H](CC[C@@H]3C[C@@H](O)CC(=O)O3)[C@H]21 [simvastatin, reference compound]
Result block: 5.32

====

Tested on: SNU-C1
run-description: cells
Assay type: cell-based
study-conditions: assay number 30; basal; read-out: Basal_Viability ATP SNU-C1 summarized IC50
readout: pIC50
Scale: negative log10 of molar concentration, which is what pIC50 denotes.

// solved cases for pIC50 follow
| mol | pIC50 |
| --- | --- |
| Oc1c(Cl)cc(Cl)c2cccnc12 | 6.31 |
| O=C(Nc1ccc(Cl)cc1)Nc1ccc(Cl)c(C(F)(F)F)c1 | 8.05 |

Now consider a different molecule.
Query block: # lookup: pIC50 of Cc1ccc2c(Br)cc(Br)c(O)c2n1
Result block: 4.89

====

Test system: endothelial tube formation in co-cultures of ECFCs and ADSCs treated with VEGF
run-description: cells
Type: cell-based, human
study-conditions: Homo sapiens, IC50 / EC50; endothelial tube area, ADSC/ECFC co-culture; read-out: Anti-Angiogenesis
*1 amine or outer side, *2 acyl side, *3 side chain or, on linkers, in order; H or OH if unused. Where a SMILES comes first, the peptide text is derived from it. Bridges are numbered along the chain shown (N, C = ends). Roman numbers before positions name the chains, in order. [ ]: non-standard residue; d: D form. Actinocin(9to1) = Cc1c2oc3c(C)ccc(C(=O)[*:1])c3nc-2c(C(=O)[*:2])c(N)c1=O; NMeV = CN[C@H](C(=O)O)C(C)C; Sar = CNCC(=O)O
readout: pIC50
Entry type: numeric. Quantity: pIC50, the -log10 of concentration in molar units.

Query block: What value of measured pIC50 is listed for Cc1c2oc3c(C)ccc(C(=O)N[C@@H]4C(=O)N[C@H](C(C)C)C(=O)N5CCC[C@H]5C(=O)N(C)CC(=O)N(C)[C@@H](C(C)C)C(=O)O[C@@H]4C)c3nc-2c(C(=O)N[C@@H]2C(=O)N[C@H](C(C)C)C(=O)N3CCC[C@H]3C(=O)N(C)CC(=O)N(C)[C@@H](C(C)C)C(=O)O[C@@H]2C)c(N)c1=O [Dactinomycin] (I: T[dV]P[Sar][NMeV] / II: T[dV]P[Sar][NMeV]; ester I:1-I:C, II:1-II:C; linker I:N-II:N via Actinocin(9to1)) ?
Result block: 9.00

Query block: Repeat for the following molecule: COc1ccc2cc1Oc1ccc(cc1)C[C@H]1c3c(cc4c(c3Oc3cc5c(cc3OC)CCN(C)[C@@H]5C2)OCO4)CCN1C
Result block: 5.52
